Every entry's value here was drawn from the supplement of paper PMC9112550.

# System: Escherichia coli TOP10;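 further: peptides expressed intracellularly from a pBAD plasmid library in pooled LB shake-flask culture, induced with 0.3% L-arabinose, DNA abundance read by NGS, three biological replicates, DESeq2 with apeglm shrinkage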
# assay-info: shrunken log2 fold change of peptide-encoding DNA abundance (4.5 h post-induction vs induction); higher = less antimicrobial activity (less host growth inhibition)
# assay-conditions: time post-induction: 4.5 h; library: site-saturation at positions 5, 18, 19, 20
Below, each entry is listed with its recorded shrunken log2 fold change.
Lab note: write the figure by itself, no unit.

As a guide, the following entries are already answered.
construct-sequence | target-under-test | numeric-readout
RRIRHRPPRLPRPRPRPYLHPRP | Escherichia coli TOP10 | -0.175
RRIRDRPPRLPRPRPRPRVCPRP | Escherichia coli TOP10 | 0.372
RRIRRRPPRLPRPRPRPECIPRP | Escherichia coli TOP10 | 0.282

What shrunken log2 fold change value was documented for this sequence, RRIRWRPPRLPRPRPRPRMGPRP ?
0.357
